From: ChEMBL document CHEMBL1127232

# Organism: Rattus norvegicus
# protocolDescription: Intrinsic activity in rat aorta was determined
# Assay type: functional
Below, each entry is listed alongside its reported Intrinsic activity.
Please reply with the bare figure in % and do not write the unit itself.

Study these solved cases before continuing.
{"structureNotation": "O=C([N-][n+]1ccccc1C1=CC(CF)(CF)Oc2ccc([N+](=O)[O-])cc21)Nc1ccccc1", "measuredNumber": 89.5}
{"structureNotation": "N#Cc1ccc2c(c1)C(c1cccc[n+]1[O-])=CC(CF)(CF)O2", "measuredNumber": 71.1}
{"structureNotation": "N#C[N-][n+]1ccccc1C1=CC(CF)(CF)Oc2ccc(C#N)cc21", "measuredNumber": 76.9}
{"structureNotation": "CC1(C)C=C(c2cccc[n+]2[N-]C#N)c2cc(C#N)ccc2O1", "measuredNumber": 63.2}
{"structureNotation": "CC1(C)Oc2ccc(C#N)cc2[C@@H](N2CCCC2=O)[C@@H]1O", "measuredNumber": 72.5}
{"structureNotation": "CC1(C)C=C(c2cccc[n+]2[O-])c2cc(C#N)ccc2O1", "measuredNumber": 78.2}
{"structureNotation": "O=[N+]([O-])[N-][n+]1ccccc1C1=CC(CF)(CF)Oc2ccc([N+](=O)[O-])cc21", "measuredNumber": 98.5}
{"structureNotation": "N#C[N-][n+]1ccccc1C1=CC(CF)(CF)Oc2ccc(C(F)(F)F)cc21", "measuredNumber": 62.3}

Proceeding to the next compound to report its Intrinsic activity.
Ask | Report measured Intrinsic activity; entry is CS(=O)(=O)[N-][n+]1ccccc1C1=CC(CF)(CF)Oc2ccc([N+](=O)[O-])cc21
Reply | 74.2
